Data origin: ChEMBL document CHEMBL4837183

System: CCRF-CEM
assay.overview: Growth inhibition of human CCRF-CEM cells measured after 48 hrs by SRB assay
Assay type: functional
test.readout: log10 GI50 (log10 of the value in nM)

CC(=O)OC[C@H]1O[C@@H](O[C@@H]2C=C3CC[C@@H]4[C@H]([C@@H](O)C[C@]5(C)[C@@H](c6ccc(=O)oc6)CC[C@]45O)[C@@]3(C)CC2)[C@H](OC(C)=O)[C@@H](OC(C)=O)[C@@H]1OC(C)=O 2.04
C[C@]12C[C@H](O)[C@H]3[C@@H](CCC4=C[C@@H](O[C@@H]5O[C@H](CO)[C@@H](O)[C@H](O)[C@H]5O)CC[C@@]43CO)[C@@]1(O)CC[C@@H]2c1ccc(=O)oc1 0.85
C[C@]12CC[C@@H](O)C=C1CC[C@@H]1[C@@H]2[C@@H](O)C[C@]2(C)[C@@H](c3ccc(=O)oc3)CC[C@]12O 2.70
CCO[C@@H]1C=C2CC[C@@H]3[C@H]([C@@H](O)C[C@]4(C)[C@@H](c5ccc(=O)oc5)CC[C@]34O)[C@@]2(C)CC1 1.73
CC(=O)OC[C@H]1O[C@@H](O[C@@H]2C=C3CC[C@@H]4[C@H](C(=O)C[C@]5(C)[C@@H](c6ccc(=O)oc6)CC[C@]45O)[C@@]3(C)CC2)[C@H](OC(C)=O)[C@@H](OC(C)=O)[C@@H]1OC(C)=O 3.84
